These measurements were taken from the FLAb antibody collection (doi:10.7554/elife.23156).

The reader will find reported pKd values listed item by item below.
B1: scFv; the commonest letter at each place (parent)
chain 1: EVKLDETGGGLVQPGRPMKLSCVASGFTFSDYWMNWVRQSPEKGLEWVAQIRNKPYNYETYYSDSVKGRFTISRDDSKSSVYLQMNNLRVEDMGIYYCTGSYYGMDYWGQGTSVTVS
chain 2: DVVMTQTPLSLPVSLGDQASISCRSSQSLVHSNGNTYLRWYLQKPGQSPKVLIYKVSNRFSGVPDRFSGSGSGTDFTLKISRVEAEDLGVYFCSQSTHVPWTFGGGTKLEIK

Variants of: B1
Assay: Kd (Tite-Seq)
Settings: with fluorescein; format: scFv 4-4-20, heavy + light
pKd: −log10 of the molar value.

Past entries and their recorded results:
* chain 1 F29M W33C | ≤ 5.00
* chain 1 N35E | ≤ 5.00
* chain 1 Y103V G104W | ≤ 5.00
* chain 1 N35K | 6.64
* chain 1 G100I Y103E | ≤ 5.00

Recorded pKd (variant chain 1 G104E W108S ): ≤ 5.00

Recorded pKd (variant chain 1 M105W ): 8.60

Recorded pKd (variant chain 1 Y102G ): 5.72
